All figures here come from ChEMBL document CHEMBL3433997.

- study_target: Solute carrier family 2, facilitated glucose transporter member 1 (Homo sapiens) (UniProt P11166)
- Sequence (P11166 whole entry): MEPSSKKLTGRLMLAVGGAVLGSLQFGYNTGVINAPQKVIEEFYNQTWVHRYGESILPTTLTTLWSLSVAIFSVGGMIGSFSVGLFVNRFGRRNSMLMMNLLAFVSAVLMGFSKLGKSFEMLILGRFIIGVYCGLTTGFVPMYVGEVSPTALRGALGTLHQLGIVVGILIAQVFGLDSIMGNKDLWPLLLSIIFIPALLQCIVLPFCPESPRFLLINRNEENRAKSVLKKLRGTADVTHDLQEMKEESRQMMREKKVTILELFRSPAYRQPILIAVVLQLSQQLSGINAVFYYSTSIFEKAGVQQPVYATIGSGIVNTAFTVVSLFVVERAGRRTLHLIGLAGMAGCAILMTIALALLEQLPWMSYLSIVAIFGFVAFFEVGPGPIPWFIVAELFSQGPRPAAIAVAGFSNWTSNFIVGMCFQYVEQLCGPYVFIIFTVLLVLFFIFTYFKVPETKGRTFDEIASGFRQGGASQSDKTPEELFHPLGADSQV
- measurement_notes: ST_JUDE_LEISH: Cytotoxicity at 2uM final concentration against transgenic Leishmania Mexicana promastigotes LmGLUT1 that are glucose transport deficient and complemented with the human glucose transporter GLUT1. Activity is measured by DNA content using SYBR green in vitro
- Type: functional
Recorded inhibition values for a group of molecules are listed next.

| molecule | inhibition (%) |
| --- | --- |
| CCCCCN1CCCC(NS(=O)(=O)c2ccc(C(=O)Nc3cccc(C(F)(F)F)c3)cc2)C1 (configuration not stated) | 1.16 |
| CCNC(=O)N1CCN(c2nc(-c3ccccc3)nc(COC)c2Cc2ccc(C)cc2)CC1 | 4.13 |
| COc1ccccc1N1CCN(C(C(=O)NCc2ccc3c(c2)OCO3)c2ccc(C)cc2)CC1 (configuration not stated) | -0.94 |
| COc1cc2nc(N(C)Cc3cccc(I)c3)nc(N)c2cc1OC | 4.75 |
| CCOC(=O)/C(=N\OC(C)(C)C(=O)NCc1ccc(O)c(O)c1)c1csc(NC(c2ccccc2)(c2ccccc2)c2ccccc2)n1 | -2.31 |
| CN(Cc1cccc(F)c1)C1CCN(c2cc(NC(=O)c3ccc(F)cc3)ccn2)C1 (configuration not stated) | 2.33 |
| COc1ccc2nccc([C@@H](O)CN3CCC(NCc4nc5c(cc4F)SCC(=O)N5)C(F)C3)c2c1 (some centres not stated) | 5.83 |

###

- study_target: Hexose transporter 1 (Plasmodium falciparum)
- measurement_notes: ST_JUDE_LEISH: Cytotoxicity at 2uM final concentration against transgenic Leishmania Mexicana promastigotes LmPfHT that are glucose transport deficient and complemented with the Plasmodium falciparum hexose transporter. Activity is measured by DNA content using SYBR green in vitro
- Type: functional

| molecule | units | inhibition |
| --- | --- | --- |
| Cc1cccc2nc(-c3cccc(-c4cccc(NC(=O)c5cnn6cccnc56)c4)c3)[nH]c12 | % | 4.22 |
| COc1ccc(C=CC(=O)NC(=O)c2ccccc2OC(=O)c2ccccc2)cc1OC | % | 2.16 |
| OCCN1CCN(Cc2cccc(-c3ccc(-c4nc5cc(C(F)(F)F)ccc5[nH]4)s3)c2)CC1 | % | -3.19 |
| COc1cc(Nc2ncc3c(C)nc(-c4cc5ccccc5[nH]4)n3n2)cc(OC)c1OC | % | 5.87 |
| CC(C)Cn1ncc2c3c(N)nc(N)nc3ccc21 | % | 5.97 |
| CC(C)(CN)c1cc(-c2ccc(Cl)c(O)c2)c(-c2ccncc2)o1 | % | 3.22 |
| O=C(Nc1cc(Cl)ccc1O)c1cc(-c2ccccc2O)no1 | % | -2.61 |
| CCc1c[nH]c2c(N3CCCCS3(=O)=O)cc(C(=O)N[C@@H](Cc3ccccc3)[C@H](O)CNCc3cccc(OC)c3)cc12 | % | -0.07 |
| CCOc1cc(NC(=O)Nc2ccnc3ccccc23)cc(OC)c1 | % | 10.5 |
| CN(C)S(=O)(=O)c1ccc(N2C(=O)C3C(C2=O)C2(c4ccccc4)C(=O)C3(c3ccccc3)C(c3ccccc3)=C2c2ccccc2)cc1 (centres undefined) | % | -2.18 |
| Cc1ccc(O)c(C(=O)c2cnc3c(c2)c(-c2ccc(F)cc2)c(C#N)c(=O)n3C)c1 | % | 4.73 |
| CC(C)(C)c1ccc(C(=O)Nc2ccc(NC(=O)c3ccc([N+](=O)[O-])o3)cc2)cc1 | % | 4.22 |
| CN1CCN(Cc2ccc(-c3cccc(-c4nc5ccccc5[nH]4)c3)cc2)CC1 | % | 0.78 |
| O=C(/C=C/c1ccc(Cl)c(Cl)c1)NCCCCCN1CCCN(C(=S)Nc2ccc(Cl)c(Cl)c2)CC1 | % | -1.2 |
